These data points were gathered from ChEMBL document CHEMBL5308504.

# Assay System: Transcription intermediary factor 1-alpha (Homo sapiens)
# Sequence (whole entry): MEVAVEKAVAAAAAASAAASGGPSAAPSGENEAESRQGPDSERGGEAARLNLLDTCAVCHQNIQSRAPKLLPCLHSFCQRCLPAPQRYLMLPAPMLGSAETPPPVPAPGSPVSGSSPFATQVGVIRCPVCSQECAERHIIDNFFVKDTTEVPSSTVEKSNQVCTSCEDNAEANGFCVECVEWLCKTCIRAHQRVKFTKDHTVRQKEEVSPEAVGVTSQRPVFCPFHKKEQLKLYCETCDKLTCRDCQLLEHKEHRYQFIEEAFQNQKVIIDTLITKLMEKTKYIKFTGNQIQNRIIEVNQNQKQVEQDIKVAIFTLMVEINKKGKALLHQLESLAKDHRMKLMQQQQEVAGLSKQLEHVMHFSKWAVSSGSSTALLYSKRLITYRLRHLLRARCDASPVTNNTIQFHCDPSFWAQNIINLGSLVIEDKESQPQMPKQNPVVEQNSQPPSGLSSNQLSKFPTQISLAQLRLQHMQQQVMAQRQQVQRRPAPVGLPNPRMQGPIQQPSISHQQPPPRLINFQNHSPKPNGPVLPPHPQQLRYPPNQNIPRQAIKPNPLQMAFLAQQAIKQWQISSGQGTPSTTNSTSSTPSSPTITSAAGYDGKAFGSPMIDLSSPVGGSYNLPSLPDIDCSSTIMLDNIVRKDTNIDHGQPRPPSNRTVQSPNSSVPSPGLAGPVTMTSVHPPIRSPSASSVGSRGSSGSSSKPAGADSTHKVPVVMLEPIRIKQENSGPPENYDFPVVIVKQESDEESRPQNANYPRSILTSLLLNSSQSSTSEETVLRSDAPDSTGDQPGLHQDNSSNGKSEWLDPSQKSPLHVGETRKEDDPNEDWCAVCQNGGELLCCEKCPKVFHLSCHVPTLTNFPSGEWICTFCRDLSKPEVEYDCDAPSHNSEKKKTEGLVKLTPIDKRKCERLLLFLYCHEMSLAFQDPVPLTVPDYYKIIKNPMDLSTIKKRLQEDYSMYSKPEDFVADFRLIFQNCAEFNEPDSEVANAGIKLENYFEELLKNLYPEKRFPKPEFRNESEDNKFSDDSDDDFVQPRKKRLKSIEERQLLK
# Conditions: Compound concentration 20.0 uM, Protein concentration 2.0 uM, Result type QC Liability
Attribute Measured: ΔTm (°C)

                            compound_string  measure_unit  experimental_value
0  Cc1cc2nc(N3CCC(C(=O)NC4CCCC4)CC3)n(C(C)C)c2cc1C            °C               -0.87
1  CN(C)CCC[C@@]1(c2ccc(F)cc2)OCc2cc(C#N)ccc21            °C               -0.51
2  Cc1cc(OCc2nc3ccccc3s2)ccc1NC(=O)Nc1ccc(Cl)c(Cl)c1            °C               -0.82
3  O=C(O)C[C@H]1CC[C@H](c2ccc(NC(=O)c3nnc(Nc4ccc(F)c(F)c4)o3)cc2)CC1            °C                0.52
4  COc1ccc(C(=O)N[C@H](C)c2cccc(C(=O)Nc3nc4c(s3)CN(C)CC4)c2)cc1C            °C               -2.54
5  NC(=O)OC[C@H](NC(=O)Cn1nc(-c2ccc(Cl)cc2)n(C[C@H](O)C(F)(F)F)c1=O)c1cccc(C(F)(F)F)c1            °C                0.59
6  COc1cc(C(N)=O)ccc1Nc1ncc2c(n1)N(CCC(C)C)[C@H](C)C(=O)N2C            °C               -0.48
7  CNC(=O)c1c(F)cccc1Nc1nc(Nc2cc3c(cc2OC)CCN3C(=O)CN(C)C)nc2[nH]ccc12            °C               -1.89
8  CN(C)C(=O)Cn1cc(-c2ccc(-c3cncc4ccccc34)cc2)cn1            °C                0.13

====

# Assay System: Bromodomain-containing protein 4 (Homo sapiens) (UniProt O60885)
# Conditions: Compound concentration 20.0 uM, Protein concentration 2.0 uM, Result type QC Liability
Hi! Could you tag entries with ΔTm below -1 °C as class 1, and those at or above as class 0? Much appreciated.

Molecule	Qualitative Label
Cc1n[nH]c2ncc(C(=O)N3CCC[C@H]3c3ccc(Cl)cc3)cc12	class 0
CN(C)CCCN1c2ccccc2Sc2ccc(Cl)cc21	class 1
N[C@@H](CC(=O)O)Cn1nnc(-c2ccc(Oc3ncc(Cl)cc3F)cc2)n1	class 1
CC(=O)N1CCN([C@H]2CCC[C@@H](NC(=O)c3cc4c(F)ccc(C)c4[nH]3)C2)CC1	class 1
O=C1CCCc2[nH]c(-c3ccnc(NCC4CC4)c3)c(Nc3ccccc3)c21	class 0
CC(C)(C[C@H]1CN(S(=O)(=O)c2cccc(C(F)(F)F)c2)c2cc(-c3cc(F)cc(OC(F)F)c3)ccc2O1)C(=O)O	class 1
CC#CC(=O)N1CCN(c2nc(-c3ccc(Oc4ccccc4)cc3)c(C(N)=O)s2)CC1	class 1
Nc1ncc2c(n1)-c1c([nH]c3ccc(C4CC4)cc13)CCCC2	class 1
CCOC(=O)C1Cc2ccccc2CN1C(=O)c1ccc(SC)s1 (stereo not drawn)	class 1
CCO[C@@H](Cc1ccc(OCCc2ccc(OS(C)(=O)=O)cc2)cc1)C(=O)O	class 0
Cn1c(C(=O)N[C@@H](CO)c2ccc(C(=O)O)cc2)cc2cc(Cl)ccc21	class 0
COc1ccc(F)c(F)c1C(=O)c1cnc(NC2CCN(S(C)(=O)=O)CC2)nc1N	class 0
CN[C@@H](C)C(=O)N[C@H](C(=O)N1CCC[C@H]1C(=O)N[C@H]1c2ccccc2C[C@H]1OCC#CC#CCO[C@@H]1Cc2ccccc2[C@@H]1NC(=O)[C@@H]1CCCN1C(=O)[C@@H](NC(=O)[C@H](C)NC)C1CCCCC1)C1CCCCC1	class 1
COc1cc(-c2cncc(-c3ccc(N4CCN(C(C)C)CC4)cc3)c2C)cc(F)c1C(=O)N1CCCC1	class 1
Cc1ccc(-c2cn3nc(C(=O)NC4(c5ccc(F)cc5)CN(C)C4)c(C(C)C)c3c(=O)[nH]2)cc1C	class 1
COc1cc(N[C@@H]2CCCC[C@]2(O)C(F)(F)F)ccc1F	class 1
Oc1c(CN2CCCC2)cc(COCc2ccccc2)c2cccnc12	class 1

====

# Assay System: Bromodomain-containing protein 4 (Homo sapiens) (UniProt O60885)
# Conditions: Compound concentration 20.0 uM, Protein concentration 2.0 uM, Result type QC Liability
Hi! Could you tag entries with ΔTm below -0.4 °C as yes (1), and those at or above as no (0)? Much appreciated.

In [3]: df
Out[3]:
                            compound_string                              assay_system  qualitative_label
0  CN(C)CC#Cc1ccc2[nH]c3c(c2c1)-c1nc(N)ncc1CCC3  Bromodomain-containing protein 4 (Homo sapiens) (UniProt O60885)            yes (1)
1  COc1ccccc1-c1cc(Nc2cccc(CS(N)(=O)=O)c2)ncn1  Bromodomain-containing protein 4 (Homo sapiens) (UniProt O60885)             no (0)
2  Cc1cc(OCCC(C)(C)O)cc(C)c1-c1ccc(F)c2c1CC[C@H]2Oc1ccc2c(c1)OC[C@H]2CC(=O)O  Bromodomain-containing protein 4 (Homo sapiens) (UniProt O60885)            yes (1)
3  O=C(O)C[C@H]1CC[C@H](c2ccc(NC(=O)c3nnc(Nc4ccc(F)c(F)c4)o3)cc2)CC1  Bromodomain-containing protein 4 (Homo sapiens) (UniProt O60885)             no (0)
4  CS(C)(=O)=Nc1ccc(-c2ccc(-c3nc4[nH]c(O[C@@H]5CO[C@H]6[C@@H]5OC[C@H]6O)nc4cc3Cl)cc2)cc1  Bromodomain-containing protein 4 (Homo sapiens) (UniProt O60885)             no (0)
5  CCn1c(-c2nonc2N)nc2cncc(C(=O)N3CC[C@H](N)C3)c21  Bromodomain-containing protein 4 (Homo sapiens) (UniProt O60885)             no (0)
6  CC(=O)c1ccc2c(c1)/C(=C(/NC1CCN(C)CC1)c1ccc3c(c1)OCO3)C(=O)N2  Bromodomain-containing protein 4 (Homo sapiens) (UniProt O60885)            yes (1)
7  CC(C)(O)CNC(=O)N1C(=O)N(c2cccc(C(F)(F)F)c2)C2=C(C(=O)CC2)[C@@H]1c1ccc(C#N)cc1  Bromodomain-containing protein 4 (Homo sapiens) (UniProt O60885)            yes (1)
8  CC(C)N(C(=O)C1CCOCC1)c1cc(F)c(Oc2ncc(Cn3nccn3)cc2C(F)(F)F)cc1C(=O)O  Bromodomain-containing protein 4 (Homo sapiens) (UniProt O60885)            yes (1)
